Observed Ki values for Sodium-dependent dopamine transporter (Homo sapiens, UniProt Q01959) are listed in what follows.
measurementType: Ki (µM)

A = O=C(Nc1ccc(Cl)c(C(F)(F)F)c1)N1CCC(C(c2ccc(F)cc2)c2ccc(F)cc2)CC1
B = O=C(NCCCCC(c1ccc(F)cc1)c1ccc(F)cc1)c1ccc(Cl)c(C(F)(F)F)c1
C = Cc1ccc(NC(=O)NCCCCC(c2ccc(F)cc2)c2ccc(F)cc2)cc1C
Arrange the above in rising order of Ki. # the answer lists labels in the order requested C, B, A
(C: 0.08 µM, B: 0.603 µM, A: 1.59 µM)

====

Molecular target: DAT (sodium-dependent dopamine transporter) (Homo sapiens, UniProt Q01959)
Sequence (Q01959 whole entry): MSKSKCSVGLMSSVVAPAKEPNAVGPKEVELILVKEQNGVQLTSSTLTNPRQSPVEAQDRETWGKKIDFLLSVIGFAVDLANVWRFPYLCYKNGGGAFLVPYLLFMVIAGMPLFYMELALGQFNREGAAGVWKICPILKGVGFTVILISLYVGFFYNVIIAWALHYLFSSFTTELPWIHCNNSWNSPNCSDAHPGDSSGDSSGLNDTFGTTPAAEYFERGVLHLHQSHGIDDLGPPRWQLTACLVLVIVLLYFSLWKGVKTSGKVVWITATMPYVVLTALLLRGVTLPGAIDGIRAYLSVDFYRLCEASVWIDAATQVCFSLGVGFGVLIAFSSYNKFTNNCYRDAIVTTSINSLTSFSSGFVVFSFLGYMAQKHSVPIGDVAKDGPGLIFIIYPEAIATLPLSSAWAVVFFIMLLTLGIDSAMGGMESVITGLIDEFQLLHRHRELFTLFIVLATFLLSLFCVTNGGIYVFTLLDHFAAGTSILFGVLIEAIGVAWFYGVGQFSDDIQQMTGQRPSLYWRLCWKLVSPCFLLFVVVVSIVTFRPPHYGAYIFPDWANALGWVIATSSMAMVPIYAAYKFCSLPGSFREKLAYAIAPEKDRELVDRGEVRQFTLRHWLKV
Assay: Inhibition of DAT (unknown origin) at 10 uM relative to control
measurementType: inhibition at 10 µM (%)

P = Cc1ccc(NC(=O)NCCCCC(c2ccc(F)cc2)c2ccc(F)cc2)cc1C
Q = O=C(CCCCC(c1ccc(F)cc1)c1ccc(F)cc1)Nc1ccc(Cl)c(C(F)(F)F)c1
R = O=C(NCCCCC(c1ccc(F)cc1)c1ccc(F)cc1)Nc1ccc(Cl)cc1C(F)(F)F
Rank the listed compounds according to inhibition at 10 µM, from the largest value downward. Answer by listing the labels in the requested order. P, Q, R
(P: 79%, Q: 33%, R: 20%)

1 = O=C(NCCCCC(c1ccc(F)cc1)c1ccc(F)cc1)Nc1ccc(I)cc1
2 = CN(CCCCC(c1ccc(F)cc1)c1ccc(F)cc1)C(=O)Nc1ccc(Cl)c(C(F)(F)F)c1
Sorting ascending by inhibition at 10 µM, which comes first: 1 or 2 ? API: response body contains the label of the selected item. 1
(1: 24%, 2: 73%)

====

Molecular target: DAT (sodium-dependent dopamine transporter) (Homo sapiens)
Assay: Inhibition of DAT (unknown origin) at 10 uM relative to control
measurementType: inhibition at 10 µM (%)

Below, each entry is followed by its recorded inhibition at 10 µM result.
CN(CCCCC(c1ccc(F)cc1)c1ccc(F)cc1)C(=O)N(C)c1ccc(Cl)c(C(F)(F)F)c1 : 26
O=C(NCCCCC(c1ccc(F)cc1)c1ccc(F)cc1)c1ccc(Cl)c(C(F)(F)F)c1 : 51
O=C(Nc1ccc(Cl)c(C(F)(F)F)c1)N1CCC(C(c2ccc(F)cc2)c2ccc(F)cc2)CC1 : 52
CC(=O)Nc1cc(NC(=O)NCCCCC(c2ccc(F)cc2)c2ccc(F)cc2)ccc1Cl : 76
COc1ccc(C(CCCCNC(=O)Nc2ccc(Cl)c([N+](=O)[O-])c2)c2ccc(OC)cc2)cc1 : 64

P = Cc1ccc(C(CCCCNC(=O)Nc2ccc(Cl)cc2)c2ccc(C)cc2)cc1
Q = O=C(Nc1ccc(Cl)c(C(F)(F)F)c1)N1CCC(CC(c2ccc(F)cc2)c2ccc(F)cc2)CC1
# argmax over inhibition at 10 µM for candidates P and Q Mark your selection by writing its label. P
(P: 59%, Q: 24%)

====

Target: DAT (sodium-dependent dopamine transporter) (Homo sapiens, UniProt Q01959)
Assay: Inhibition of DAT (unknown origin) at 10 uM relative to control
measurementType: inhibition at 10 µM (%)

O=C(Nc1ccc(Cl)c(C(F)(F)F)c1)OCCCCC(c1ccc(F)cc1)c1ccc(F)cc1 : 49
O=C(NCCCC(c1ccc(F)cc1)c1ccc(F)cc1)Nc1ccc(Cl)c(C(F)(F)F)c1 : 86
O=C(NCCCCC(c1ccc(F)cc1)c1ccc(F)cc1)Nc1ccc(Cl)c(C(F)(F)F)c1 : 90
O=C(NCCCCN(c1ccc(F)cc1)c1ccc(F)cc1)Nc1ccc(Cl)c(C(F)(F)F)c1 : 85
Cc1cc(Cl)ccc1NC(=O)NCCCCC(c1ccc(F)cc1)c1ccc(F)cc1 : 58

a = O=C(NCCCCC(c1ccc(F)cc1)c1ccc(F)cc1)Nc1ccc(Cl)cc1
b = Cc1ccc(C(CCCCNC(=O)Nc2ccc(Cl)c(C(F)(F)F)c2)c2ccc(C)cc2)cc1
Pick the one with the larger inhibition at 10 µM: a vs b Kindly give the label for the entry you pick. a
